- measurement-target: CD28 (Homo sapiens, UniProt P10747)
- experiment-summary: Jurkat/IL2 + CHO/OKT3 +/- PD-L1 reporter assay: PD-L1-dependent CD28 costimulation
- Assay type: cell-based
- Design: host or cells: Jurkat cells expressing an IL-2-luciferase reporter
- protocol-conditions: CHO/OKT3/PD-L1 aAPC; 50 nM; luciferase signal
PD-L1-Dependent CD28 Costimulation, +PD-L1, 50 nM for assorted molecules

In the examples that follow, each entry is paired with its recorded PD-L1-Dependent CD28 Costimulation, +PD-L1, 50 nM.
E35D/D46V/L85Q: variant CD80 IgV-Fc, IgV SEQ ID NO:203 (protein) VIHVTKEVKEVATLSCGHNVSVEELAQTRIYWQKDKKMVLTMMSGVMNIWPEYKNRTIFDITNNLSIVILALRPSDEGTYECVVQKYEKDAFKREHLAEVTLSVKAD    2224
E35G/K54E/A71D/L72P: variant CD80 IgV-Fc, IgV SEQ ID NO:219 (protein) VIHVTKEVKEVATLSCGHNVSVEELAQTRIYWQKGKKMVLTMMSGDMNIWPEYENRTIFDITNNLSIVILDPRPSDEGTYECVVLKYEKDAFKREHLAEVTLSVKAD    476
E35D/M47I/L70M: variant CD80 IgV-Fc, IgV SEQ ID NO:199 (SEQ ID NO:125 in b995) (protein) VIHVTKEVKEVATLSCGHNVSVEELAQTRIYWQKDKKMVLTMMSGDINIWPEYKNRTIFDITNNLSIVIMALRPSDEGTYECVVLKYEKDAFKREHLAEVTLSVKAD    2629
E35D/M47I: variant CD80 IgV-Fc, IgV SEQ ID NO:177 (protein) VIHVTKEVKEVATLSCGHNVSVEELAQTRIYWQKDKKMVLTMMSGDINIWPEYKNRTIFDITNNLSIVILALRPSDEGTYECVVLKYEKDAFKREHLAEVTLSVKAD    3778
A71D/L72V/E95K: variant CD80 IgV-Fc, IgV SEQ ID NO:192 (protein) VIHVTKEVKEVATLSCGHNVSVEELAQTRIYWQKEKKMVLTMMSGDMNIWPEYKNRTIFDITNNLSIVILDVRPSDEGTYECVVLKYEKDAFKRKHLAEVTLSVKAD    755

Turning to the following molecule.
Ask | Look at this molecule and give its reported PD-L1-Dependent CD28 Costimulation, +PD-L1, 50 nM. E23G/A26S/E35D/T62N/A71D/L72V/L85M: variant CD80 IgV-Fc, IgV SEQ ID NO:216 (protein) VIHVTKEVKEVATLSCGHNVSVGELSQTRIYWQKDKKMVLTMMSGDMNIWPEYKNRTIFDINNNLSIVILDVRPSDEGTYECVVMKYEKDAFKREHLAEVTLSVKAD
Reply | 695
